Data origin, for the record: paper PMC5360062

TESTED SYSTEM: PfCBH1 (GH7 cellobiohydrolase 1)
Construct: natively purified enzyme from the secretome
PROTOCOL DESCRIPTION: inhibition of pNPL hydrolysis by purified enzyme, Michaelis-Menten/Lineweaver-Burk; IC50 […]
OBSERVABLE: Ki (µM)
# output: bare number, implied unit µM

Ask: Look up and state reported Ki for OC[C@H]1O[C@@H](O[C@H]2[C@H](O)[C@@H](O)C(O)O[C@@H]2CO)[C@H](O)[C@@H](O)[C@@H]1O (stereo partly shown)
Result: 760
